experiment: Stability: residual amount of test compound after standing at 30° C. for 3 months, liquid chromatography
Assay type: physicochemical
study_conditions: hair tonic, Table III; 0.1% in hair tonic, 30° C., 3 months; read-out: Stability Residue(%)
endpoint_name: remaining at 2190 h (%)
Numbers only here, please. The scale is %.

Give the measured remaining at 2190 h for COc1nc2c(N)ncnc2n1[C@@H]1O[C@@H]2COP(=O)(O)O[C@H]2[C@H]1O
99.7

---

experiment: Stability: residual amount of test compound after standing at 30° C. for 3 months, liquid chromatography
Type: physicochemical
study_conditions: hair tonic, Stability Residue(%)
endpoint_name: remaining at 2190 h

Give the measured remaining at 2190 h for CCCC(=O)Nc1ncnc2c1ncn2[C@@H]1O[C@@H]2COP(=O)(O)O[C@H]2[C@H]1OC(=O)CCC [N^6,O^2' -dibutyryl cAMP, reference compound]
86.4%

Origin of values: patent US5318776A
